What Kd was measured for each of the following?
Molecular target: T1, 14‐3‐3γ (human, UniProt P61981 1-247)
T1 construct: 14-3-3 gamma, human, full-length protein from the pProEx HTb-His-14-3-3 construct; Written as the protomer; tag removal is told only for the ∆C proteins; source: E. coli BL21(DE3), purified (Ni2+-NTA, dialysis)
T1 sequence (looked up): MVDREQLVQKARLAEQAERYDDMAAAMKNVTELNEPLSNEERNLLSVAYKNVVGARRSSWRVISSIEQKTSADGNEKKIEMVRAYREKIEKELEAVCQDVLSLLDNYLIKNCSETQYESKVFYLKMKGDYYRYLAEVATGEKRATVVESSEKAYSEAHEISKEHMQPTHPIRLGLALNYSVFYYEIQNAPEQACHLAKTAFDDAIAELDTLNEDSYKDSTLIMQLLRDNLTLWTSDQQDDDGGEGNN
Test: fluorescence polarisation; fluorescence anisotropy, direct titration: 14-3-3 protein titrated (1/2 dilution series) against 50 nM FAM-Ahx tracer peptide; 10 mM HEPES, 150 mM NaCl, 0.1% Tween 20, 0.1% BSA, pH 7.4; 384 well plates, triplicates; protein concentration as 14-3-3 monomer; 1:1 fit, biphasic curves fitted as two separate 1:1 events (Kd1, Kd2)
Settings: both partners purified
[ ]: non-standard residue; d: D form. pS = N[C@@H](COP(=O)(O)O)C(=O)O; FAM = 5,6-carboxyfluorescein; Ahx = NCCCCCC(=O)O
Numbers only, in µM.

INSERT INTO results (binder, quantitativereadout) VALUES
  ('{FAM-Ahx}-SKLTHSL[pS]TSDITAI-NH2 (hDMX (human double minute 4 protein, hDM4), human, residues 335-349; Tracer form used in the FA assays; source: synthetic peptide (Fmoc SPPS, HPLC purified)) [FAM‐Ahx‐hDMX_(335‐349) ^pSer342]', 37.8);

Hi, could you look up Kd for each item in my list?
1. {FAM-Ahx}-DCRRTI[pS]APVVRPK-NH2 (Tracer form used in the FA assays; source: synthetic peptide (Fmoc SPPS, HPLC purified)) [FAM‐Ahx‐hDMX_(361‐374) ^pSer367]
2. {FAM-Ahx}-QRKRHK[pS]DSISLS-NH2 (hDM2 (human double minute 2 protein), human, residues 180-192; Tracer form used in the FA assays; source: synthetic peptide (Fmoc SPPS, HPLC purified)) [FAM‐Ahx‐hDM2_(180‐192) ^pSer186]

// result
[0.53, 82.9]

Entry {FAM-Ahx}-SRRRAI[pS]ETEEN-NH2 (hDM2 (human double minute 2 protein), human, residues 160-171; Tracer form used in the FA assays; also called hDM2_(160‐171) ^Ser166; source: synthetic peptide (Fmoc SPPS, HPLC purified)) [FAM‐Ahx‐hDM2_(160‐171) ^pSer166] ; Kd = 3.9
